meta.source: patent US9187465B2

Measured IC50, listed per entry for reference.
target: human FLT3 (Homo sapiens, UniProt P36888); construct: a construct expressing the human FLT3 (564-993) with an amino terminal GST tag; assay: FLT3 kinase assay (DELFIA enzyme inhibition)
Sequence (P36888 564-993): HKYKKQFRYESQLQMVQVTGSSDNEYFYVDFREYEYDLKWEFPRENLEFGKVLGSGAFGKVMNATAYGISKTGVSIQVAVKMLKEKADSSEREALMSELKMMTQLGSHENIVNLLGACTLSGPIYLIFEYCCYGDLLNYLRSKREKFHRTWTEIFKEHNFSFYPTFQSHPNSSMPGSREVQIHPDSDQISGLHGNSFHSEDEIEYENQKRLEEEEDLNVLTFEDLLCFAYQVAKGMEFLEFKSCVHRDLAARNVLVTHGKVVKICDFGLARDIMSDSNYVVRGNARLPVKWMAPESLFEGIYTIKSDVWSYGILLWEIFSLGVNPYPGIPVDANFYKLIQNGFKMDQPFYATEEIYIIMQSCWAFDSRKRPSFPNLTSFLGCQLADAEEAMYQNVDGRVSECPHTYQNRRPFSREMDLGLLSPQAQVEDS

compound	IC50
NC(=O)c1nc(Nc2ccc3[nH]ncc3c2)oc1-c1ccc(N2CCNCC2)cc1 [Example R-15]	< 10 µM
NC(=O)c1nc(-c2c(F)cccc2F)oc1Nc1ccc(N2CCOCC2)cc1 [Example Q-1]	< 10 µM
NC(=O)c1nc(-c2c(F)cccc2F)oc1Nc1ccc(S(=O)(=O)N2CCOCC2)cc1 [Example Q-29]	< 10 µM
COc1ccc(-c2oc(-c3cccc(NC(C)=O)c3)nc2C(N)=O)cc1 [Example N-3]	< 100 µM
NC(=O)c1nc(-c2c(F)cccc2F)oc1Nc1ccc(C(=O)NCC2CN(Cc3ccccc3)CCO2)cc1 (centres unmarked) [Example U-5]	< 10 µM
COc1ccccc1Nc1nc(C(N)=O)c(-c2ccc(N3CCNCC3)cc2)o1 [Example R-11]	< 10 µM

Can you look up the measured IC50 of NC(=O)c1nc(-c2ccccc2F)oc1-c1ccc(N2CCNCC2)cc1 [Example G-4] for me?
< 10 µM

----------
biological target: human Aurora A (Homo sapiens); construct: Histidine tag (N); host or cells: Sf9 insect cells (baculovirus); test: Aurora A kinase assay (DELFIA enzyme inhibition); format: biochemical; settings: read-out: Aurora A IC50
Here, each record is paired with measured IC50 data.

In the examples that follow, each entry is paired with its recorded IC50.
chemical-smiles	reported-property	value
CS(=O)(=O)c1ccc(Nc2oc(-c3c(F)cccc3F)nc2C(N)=O)cc1	IC50	< 10 µM
NC(=O)c1nc(Nc2cccnc2)oc1-c1ccc(N2CCNCC2)cc1	IC50	< 10 µM
COc1ccc(-c2oc(Nc3c(F)cccc3F)nc2C(N)=O)cc1	IC50	< 10 µM

Data request, read-out IC50, for NC(=O)c1nc(-c2c(F)cccc2F)oc1-c1ccc(N)cc1
< 10 µM

State the recorded IC50 for this entry: COc1ccc(-c2nc(-c3ccccc3C)[nH]c2C(N)=O)cc1
< 100 µM

----------
target: human Aurora A (Homo sapiens, UniProt O14965); construct: Histidine tag (N); host or cells: Sf9 insect cells (baculovirus); experiment: Aurora A kinase assay (DELFIA enzyme inhibition); assay type: biochemical; conditions: read-out: Aurora A IC50
reported-property: IC50

chemical-smiles	IC50
NC(=O)c1nc(-c2c(F)cccc2F)oc1-c1ccc(CN2CCNCC2)cc1	< 10 µM

What measured IC50 is associated with COc1ccc(-c2oc(-c3c[nH]c4ccccc34)nc2C(N)=O)cc1 on human Aurora A (Homo sapiens, UniProt O14965)?
< 100 µM

GET /values?readout=IC50&system=human Aurora A (Homo sapiens, UniProt O14965)&item= NCc1ccc(-c2oc(-c3c(F)cccc3F)nc2C(N)=O)cc1
< 10 µM

Query the reported IC50 for human Aurora A (Homo sapiens, UniProt O14965); item: NC(=O)c1nc(-c2c(F)cccc2F)oc1Nc1ccc(C(=O)N2CCC[C@@H]2CO)cc1
< 10 µM

----------
Target: human Aurora A (Homo sapiens, UniProt O14965)
Construct: Histidine tag (N); host or cells: Sf9 insect cells (baculovirus)
Sequence (O14965 1-403): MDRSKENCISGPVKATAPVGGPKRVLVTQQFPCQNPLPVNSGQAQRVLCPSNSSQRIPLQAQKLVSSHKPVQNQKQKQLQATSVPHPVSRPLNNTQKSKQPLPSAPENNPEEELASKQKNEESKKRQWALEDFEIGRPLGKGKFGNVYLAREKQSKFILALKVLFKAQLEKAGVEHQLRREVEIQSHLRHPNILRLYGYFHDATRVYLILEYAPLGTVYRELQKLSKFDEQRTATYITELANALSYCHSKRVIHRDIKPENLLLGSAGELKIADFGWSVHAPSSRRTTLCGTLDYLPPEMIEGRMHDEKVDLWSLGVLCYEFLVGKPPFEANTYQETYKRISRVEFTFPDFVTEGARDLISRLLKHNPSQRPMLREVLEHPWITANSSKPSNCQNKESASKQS
Assay: Aurora A kinase assay (DELFIA enzyme inhibition)
Assay type: biochemical
Details: read-out: Aurora A IC50
As shown below, each of these compounds has a reported IC50 value.

Worked set:
chemical-smiles	assayed-target	value
Cc1ccccc1Nc1nc(C(N)=O)c(-c2ccc(N3CCNCC3)cc2)o1	human Aurora A (Homo sapiens, UniProt O14965)	< 10 µM
COc1ccc(-c2oc(Nc3ccccc3F)nc2C(N)=O)cc1	human Aurora A (Homo sapiens, UniProt O14965)	< 10 µM
COc1cccc(Nc2oc(-c3c(F)cccc3F)nc2C(N)=O)c1	human Aurora A (Homo sapiens, UniProt O14965)	< 100 µM
NC(=O)c1nc(-c2c(F)cccc2F)oc1-c1ccc(OCCCN2CCCCC2)cc1	human Aurora A (Homo sapiens, UniProt O14965)	< 10 µM

Field request: IC50 | item: CN1CCN(c2ccc(Nc3oc(-c4c(F)cccc4F)nc3C(N)=O)cc2)CC1
< 10 µM

----------
biological target: human FLT4 (Homo sapiens, UniProt P35916); construct: a construct expressing the human FLT4 (789-1207) with an amino terminal GST tag; host or cells: Sf9 insect cells (baculovirus); test: FLT4 kinase assay (DELFIA enzyme inhibition); format: biochemical; details: read-out: FLT4 IC50
Sequence (P35916 789-1207): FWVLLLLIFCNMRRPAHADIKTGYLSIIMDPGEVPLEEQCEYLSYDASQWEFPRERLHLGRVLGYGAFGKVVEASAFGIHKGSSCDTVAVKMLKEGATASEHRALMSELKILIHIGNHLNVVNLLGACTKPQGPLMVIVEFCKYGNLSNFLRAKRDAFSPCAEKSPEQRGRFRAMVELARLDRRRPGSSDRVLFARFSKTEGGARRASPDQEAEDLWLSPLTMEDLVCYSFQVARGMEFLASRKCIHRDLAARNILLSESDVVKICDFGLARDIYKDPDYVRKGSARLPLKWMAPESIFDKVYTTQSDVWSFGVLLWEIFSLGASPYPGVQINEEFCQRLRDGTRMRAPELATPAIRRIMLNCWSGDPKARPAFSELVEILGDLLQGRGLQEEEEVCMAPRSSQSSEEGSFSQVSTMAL
pIC50: −log10 of the molar value.
reported-property: pIC50

Below are worked cases with known answers.
chemical-smiles	reported-property	value
NC(=O)c1nc(-c2c(F)cccc2Cl)oc1Nc1ccc(N2CCNCC2)cc1	pIC50	> 5.00
COc1ccc(-c2nc(-c3csc4ccccc34)[nH]c2C(N)=O)cc1	pIC50	> 4.00
COc1ccc(-c2nc(-c3cccc(OC)c3)[nH]c2C(N)=O)cc1	pIC50	> 4.00
NC(=O)c1nc(-c2c(F)cccc2F)oc1-c1cccc(C(=O)N2CCCCC2)c1	pIC50	> 5.00

Entry under review: COc1ccc(-c2nc(-c3cccnc3)[nH]c2C(N)=O)cc1 . Reported pIC50?
> 4.00

Quick check: pIC50 of NC(=O)c1nc(-c2c(F)cccc2F)oc1Nc1ccc(C(=O)N2CCOCC2)cc1 ?
> 5.00

// lookup pIC50 for NC(=O)c1nc(-c2cccnc2)oc1-c1ccc(N2CCNCC2)cc1
> 5.00

Fill blank: measured pIC50 of the compound NC(=O)c1nc(Nc2cnn(Cc3ccccc3)c2)oc1-c1ccc(N2CCNCC2)cc1 is ____.
> 5.00

Requested field: pIC50. Item: NC(=O)c1[nH]c(-c2c(F)cccc2F)nc1-c1cccs1
> 5.00

Query (compound): NC(=O)c1ccc(-c2oc(-c3c(F)cccc3F)nc2C(N)=O)cc1 ; field requested: pIC50
> 5.00

pIC50 lookup needed for NC(=O)c1nc(-c2ccc3[nH]ccc3c2)oc1-c1ccc(N2CCNCC2)cc1 , thanks.
> 5.00

Report pIC50 for COc1ccc(-c2nc(-c3c(F)cccc3F)[nH]c2C(N)=O)cc1 please.
> 4.00

For COc1ccc(-c2nc(-c3ccccc3OC)[nH]c2C(N)=O)cc1 , what is its reported pIC50?
> 4.00

----------
We begin with a simple list: items and their reported pIC50.
biological target: human FLT4 (Homo sapiens, UniProt P35916); construct: a construct expressing the human FLT4 (789-1207) with an amino terminal GST tag; host or cells: Sf9 insect cells (baculovirus); experiment: FLT4 kinase assay (DELFIA enzyme inhibition); format: biochemical; settings: read-out: FLT4 IC50
pIC50: −log10 of the molar value.

compound	pIC50
COc1ccc(-c2oc(-c3ccc(C#N)cc3)nc2C(N)=O)cc1	> 4.00
CC(C)(C)OC(=O)N1CCC(NC(=O)c2ccc(Nc3oc(-c4c(F)cccc4F)nc3C(N)=O)cc2)CC1	> 5.00
NC(=O)c1nc(-c2c(F)cccc2F)oc1-c1ccc(CN2CCOCC2)cc1	> 4.00

Reported pIC50, compound NC(=O)c1nc(-c2c(F)cccc2F)oc1-c1ccc(OCCCN2CCOCC2)cc1 : ____
> 5.00

----------
target: human FLT4 (Homo sapiens, UniProt P35916); construct: a construct expressing the human FLT4 (789-1207) with an amino terminal GST tag; host or cells: Sf9 insect cells (baculovirus); test: FLT4 kinase assay (DELFIA enzyme inhibition); assay type: biochemical; conditions: read-out: FLT4 IC50
pIC50: −log10 of the molar value.
reported-property: pIC50

Worked cases, pIC50 given:
chemical-smiles	pIC50
NC(=O)c1nc(-c2c(Cl)cccc2Cl)oc1Nc1ccc(N2CCNCC2)cc1	> 5.00
CS(=O)(=O)c1ccc(F)c(Nc2oc(-c3c(F)cccc3F)nc2C(N)=O)c1	> 5.00
CN(C)CCOc1ccc(-c2oc(-c3c(F)cccc3F)nc2C(N)=O)cc1	> 5.00
NC(=O)c1nc(-c2c(F)cccc2F)oc1-c1cccc(CN2CCNC(=O)C2)c1	> 4.00
NC(=O)c1nc(-c2ccnc3[nH]ccc23)oc1-c1ccc(N2CCNCC2)cc1	> 5.00
NC(=O)c1nc(-c2c(F)cccc2F)oc1-c1ccc2c(c1)OCO2	> 4.00

For human FLT4 (Homo sapiens, UniProt P35916), provide pIC50 of CN(C)CCNC(=O)c1ccc(Nc2oc(-c3c(F)cccc3F)nc2C(N)=O)cc1 please.
> 5.00

Provide the documented pIC50 with human FLT4 (Homo sapiens, UniProt P35916) as the system for CS(=O)(=O)c1ccc(Nc2oc(-c3cccc4[nH]ncc34)nc2C(N)=O)cc1
> 5.00

What measured pIC50 is associated with NC(=O)c1nc(-c2c(F)cccc2F)oc1Nc1ccc(C(=O)N[C@H]2CCNC2)cc1 on human FLT4 (Homo sapiens, UniProt P35916)?
> 5.00

Under human FLT4 (Homo sapiens, UniProt P35916): pIC50 value of COc1ccc(-c2oc(Nc3ccccc3)nc2C(N)=O)cc1 ?
> 5.00

Which measured pIC50 belongs to Cc1cccc(C)c1-c1nc(C(N)=O)c(Nc2ccc(N3CCNCC3)cc2)o1 , tested on human FLT4 (Homo sapiens, UniProt P35916)?
> 5.00

Identify the measured pIC50 of COc1ccc(-c2oc(-c3cccc(NC(C)=O)c3)nc2C(N)=O)cc1 for human FLT4 (Homo sapiens, UniProt P35916).
> 5.00

Find the measured pIC50: item NC(=O)c1nc(-c2c(F)cccc2F)oc1Nc1ccc(-c2cc(CO)on2)cc1 , target or system human FLT4 (Homo sapiens, UniProt P35916).
> 5.00

Form: Entry = CC(=O)Nc1ccc(-c2oc(-c3c(F)cccc3F)nc2C(N)=O)cc1 | System = human FLT4 (Homo sapiens, UniProt P35916) | pIC50 = ____
> 5.00

Please state recorded pIC50 (tested on human FLT4 (Homo sapiens, UniProt P35916)) of NC(=O)c1nc(-c2cccc3[nH]ccc23)oc1-c1ccc(N2CCNCC2)cc1
> 5.00

Quick check: pIC50 on human FLT4 (Homo sapiens, UniProt P35916), item NC(=O)c1nc(-c2ccccc2F)oc1-c1ccc(OCCN2CCOCC2)cc1 ?
> 5.00

Please tell me: pIC50 of NC(=O)c1nc(-c2c(F)cccc2F)oc1Nc1ccc(-n2cnnn2)cc1 , system human FLT4 (Homo sapiens, UniProt P35916)?
> 5.00
